- TARGET SYSTEM: Cytochrome P450 2C19 (Homo sapiens)
- METHOD: Cytochrome panel assay with activity outcomes
- EXPERIMENTAL CONTEXT: recombinant CYP, pro-luciferin dealkylation, luminescence, p450-cyp2c19; series mostly up to 57.1 µM
About 5,800 (36%) of roughly 16,000 compounds were called active. Another 23% or so got no clear call; they are omitted. Some of the results follow.
METRIC NAME: AC50

COMPOUND: CC(C)[C@@H]1[C@H]2CC[C@H](C2)[C@H]1N
TARGET SYSTEM: Cytochrome P450 2C19 (Homo sapiens)
METRIC NAME: AC50
READOUT VALUE: inactive
//
COMPOUND: COCC(=O)N1CCC2(CC1)CN(Cc1ccc(C#N)cc1)C2
TARGET SYSTEM: Cytochrome P450 2C19 (Homo sapiens)
METRIC NAME: AC50
READOUT VALUE: inactive
//
COMPOUND: CCNc1nnc(-c2ccncc2)s1
TARGET SYSTEM: Cytochrome P450 2C19 (Homo sapiens)
METRIC NAME: AC50
READOUT VALUE: 5.01 µM (active)
//
COMPOUND: CC(=O)OC1CCC(OC(C)=O)c2c1n([O-])c(C)c(C)[n+]2=O (stereo unspecified)
TARGET SYSTEM: Cytochrome P450 2C19 (Homo sapiens)
METRIC NAME: AC50
READOUT VALUE: inactive
//
COMPOUND: CC[C@H](NC(=O)c1c(C)c(-c2ccccc2)nc2ccccc12)c1ccccc1
TARGET SYSTEM: Cytochrome P450 2C19 (Homo sapiens)
METRIC NAME: AC50
READOUT VALUE: inactive
//
COMPOUND: S=C1SCN(CCN2CCOCC2)CN1Cc1ccccc1
TARGET SYSTEM: Cytochrome P450 2C19 (Homo sapiens)
METRIC NAME: AC50
READOUT VALUE: 10 µM (active)
//
COMPOUND: COc1ccc(C(=O)N2CCC[C@@]3(CCN(C(=O)NC(C)C)C3)C2)cc1
TARGET SYSTEM: Cytochrome P450 2C19 (Homo sapiens)
METRIC NAME: AC50
READOUT VALUE: inactive
//
COMPOUND: COC(=O)c1ccccc1OCC(=O)N1CCN(c2ccc(OC)cc2)CC1
TARGET SYSTEM: Cytochrome P450 2C19 (Homo sapiens)
METRIC NAME: AC50
READOUT VALUE: 14.1 µM (active)
//
COMPOUND: Cc1ccc(C)c(N2CCN(C(=O)c3ccc4nc(-c5ccco5)c(-c5ccco5)nc4c3)CC2)c1
TARGET SYSTEM: Cytochrome P450 2C19 (Homo sapiens)
METRIC NAME: AC50
READOUT VALUE: 8.91 µM (active)
//
COMPOUND: COc1ccc(N2CCN(C(=N)/C(C(C)=O)=C(\C)O)CC2)cc1
TARGET SYSTEM: Cytochrome P450 2C19 (Homo sapiens)
METRIC NAME: AC50
READOUT VALUE: inactive
//
COMPOUND: O=C(CCN1C(=O)c2cccc3cccc(c23)C1=O)N1CCN(Cc2ccc3c(c2)OCO3)CC1
TARGET SYSTEM: Cytochrome P450 2C19 (Homo sapiens)
METRIC NAME: AC50
READOUT VALUE: 1.58 µM (active)

Values from PubChem BioAssay AID1851
